# system: CDK12 (Homo sapiens (Human))
# assay.text: CDK12 plate based target engagement assay in Jurkat cells
# Assay type: cell-based
# condition.label: Jurkat cells, 6 hours
# Sequence (Q9NYV4 whole entry, looked up): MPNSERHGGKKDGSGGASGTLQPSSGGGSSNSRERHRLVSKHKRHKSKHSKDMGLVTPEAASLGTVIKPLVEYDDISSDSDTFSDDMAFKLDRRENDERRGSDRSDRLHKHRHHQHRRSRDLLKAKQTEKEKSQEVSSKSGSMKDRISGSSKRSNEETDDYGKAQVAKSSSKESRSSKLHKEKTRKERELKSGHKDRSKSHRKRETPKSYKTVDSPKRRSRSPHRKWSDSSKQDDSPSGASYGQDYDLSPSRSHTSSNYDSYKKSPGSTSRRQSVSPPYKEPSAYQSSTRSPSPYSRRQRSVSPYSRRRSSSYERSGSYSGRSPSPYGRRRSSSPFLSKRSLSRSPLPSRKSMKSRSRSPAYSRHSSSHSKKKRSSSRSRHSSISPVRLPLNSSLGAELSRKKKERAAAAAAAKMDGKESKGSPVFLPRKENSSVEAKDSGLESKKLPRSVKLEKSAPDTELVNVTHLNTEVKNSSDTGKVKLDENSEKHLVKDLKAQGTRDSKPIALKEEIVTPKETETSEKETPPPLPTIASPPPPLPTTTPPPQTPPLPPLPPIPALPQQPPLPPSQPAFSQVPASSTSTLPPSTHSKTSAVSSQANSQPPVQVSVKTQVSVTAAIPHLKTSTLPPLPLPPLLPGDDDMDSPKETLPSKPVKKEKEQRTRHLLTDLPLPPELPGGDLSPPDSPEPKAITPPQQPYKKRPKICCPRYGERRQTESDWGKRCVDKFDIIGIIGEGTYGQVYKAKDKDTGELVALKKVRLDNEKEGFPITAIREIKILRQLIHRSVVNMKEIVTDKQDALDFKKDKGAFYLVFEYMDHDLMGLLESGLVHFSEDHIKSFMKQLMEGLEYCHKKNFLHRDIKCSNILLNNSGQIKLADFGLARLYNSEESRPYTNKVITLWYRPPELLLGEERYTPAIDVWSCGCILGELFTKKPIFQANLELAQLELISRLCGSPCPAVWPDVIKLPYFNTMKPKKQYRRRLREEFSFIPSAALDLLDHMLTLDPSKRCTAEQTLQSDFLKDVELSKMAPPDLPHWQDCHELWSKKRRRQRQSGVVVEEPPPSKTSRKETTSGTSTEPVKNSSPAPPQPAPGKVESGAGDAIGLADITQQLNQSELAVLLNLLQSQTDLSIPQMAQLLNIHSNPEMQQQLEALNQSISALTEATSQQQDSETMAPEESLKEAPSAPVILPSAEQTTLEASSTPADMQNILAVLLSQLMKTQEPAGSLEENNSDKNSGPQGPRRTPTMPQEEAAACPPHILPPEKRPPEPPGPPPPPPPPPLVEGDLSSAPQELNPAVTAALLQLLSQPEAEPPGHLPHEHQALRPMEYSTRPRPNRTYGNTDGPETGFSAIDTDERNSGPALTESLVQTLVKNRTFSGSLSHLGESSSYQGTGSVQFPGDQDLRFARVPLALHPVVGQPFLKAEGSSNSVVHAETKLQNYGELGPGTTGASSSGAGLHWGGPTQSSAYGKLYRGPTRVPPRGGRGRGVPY
# Sequence (O75909 whole entry partner, looked up): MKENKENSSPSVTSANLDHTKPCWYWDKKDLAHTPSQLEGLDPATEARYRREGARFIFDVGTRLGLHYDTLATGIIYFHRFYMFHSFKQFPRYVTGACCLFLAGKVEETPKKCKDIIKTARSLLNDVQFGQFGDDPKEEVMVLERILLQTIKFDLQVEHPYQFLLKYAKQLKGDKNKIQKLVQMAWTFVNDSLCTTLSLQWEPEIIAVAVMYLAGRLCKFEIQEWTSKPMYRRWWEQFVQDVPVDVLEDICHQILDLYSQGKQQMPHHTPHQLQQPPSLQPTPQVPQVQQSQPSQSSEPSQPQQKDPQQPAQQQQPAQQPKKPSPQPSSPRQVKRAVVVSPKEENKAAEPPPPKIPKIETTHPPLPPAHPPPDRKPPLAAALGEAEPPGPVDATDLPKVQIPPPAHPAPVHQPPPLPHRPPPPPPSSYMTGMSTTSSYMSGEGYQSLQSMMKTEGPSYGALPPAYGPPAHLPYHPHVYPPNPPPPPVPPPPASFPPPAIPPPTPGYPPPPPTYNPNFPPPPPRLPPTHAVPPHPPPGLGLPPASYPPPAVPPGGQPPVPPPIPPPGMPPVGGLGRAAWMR
Field: CDK12 Target Occupancy (Tocc50) μM in Jurkat cells. Provide a value for each of the compounds that follow.
The reply should be a number in µM, with the unit left off.

Return reported CDK12 Target Occupancy (Tocc50) μM in Jurkat cells. Input compound: C=CC(=O)N1CC=C(c2ccc(C(C)C(=O)Nc3cc(C4CC4)[nH]n3)cn2)C1 (centres unmarked) [Compound 46]
0.003

Return reported CDK12 Target Occupancy (Tocc50) μM in Jurkat cells. Input compound: C=CC(=O)N1CC=C(c2ccc(C(C)C(=O)Nc3cc(C4CC4)[nH]n3)cc2F)CC1 (centres unmarked) [Compound 44]
0.009

Return reported CDK12 Target Occupancy (Tocc50) μM in Jurkat cells. Input compound: C=CC(=O)N1CC=C(c2ccc(C(C)C(=O)Nc3cc(C4CC4)[nH]n3)cn2)CC1 (single isomer, unassigned) [Compound 6]
0.012

Return reported CDK12 Target Occupancy (Tocc50) μM in Jurkat cells. Input compound: C[C@H](C(=O)Nc1cc(C2CC2)[nH]n1)c1ccc(C2=CCN(C(=O)/C=C/CN(C)C)CC2)cc1 [Compound 15]
0.204

Return reported CDK12 Target Occupancy (Tocc50) μM in Jurkat cells. Input compound: C=CC(=O)N1CCC=C(c2ccc([C@H](C)C(=O)Nc3cc(C4CC4)[nH]n3)cc2)C1 [Compound 34]
0.050

---

# system: CDK12 (Homo sapiens (Human))
# assay.text: Biochemical assay for CDK12 (IC50 determination), LANCE TR-FRET
# Sequence (Q9NYV4 whole entry, looked up, species assumed): as the sequence (Q9NYV4 whole entry, looked up) above
# Sequence (O75909 whole entry partner, looked up, species assumed): as the sequence (O75909 whole entry partner, looked up) above
metric: Ratio CDK7/CDK12

Give Ratio CDK7/CDK12; test system CDK12 (Homo sapiens (Human)); compound C=CC(=O)N1CCC=C(c2ccc(C(C)C(=O)Nc3cc(C4CC4)[nH]n3)cc2F)C1 (centres unmarked) [Compound 42]
31.42

Give Ratio CDK7/CDK12; test system CDK12 (Homo sapiens (Human)); compound C=CC(=O)N1CC=C(c2ccc(C(C)C(=O)Nc3cc(C4CC4)[nH]n3)cn2)C1 (centres unmarked) [Compound 38]
29.7

Give Ratio CDK7/CDK12; test system CDK12 (Homo sapiens (Human)); compound C=CC(=O)N1CCCC(c2ccc(C(C)C(=O)Nc3cc(C4CC4)[nH]n3)cn2)C1 (centres unmarked) [Compound 41]
9.91

Give Ratio CDK7/CDK12; test system CDK12 (Homo sapiens (Human)); compound C=CC(=O)N1CCC(c2ccc(C(C)C(=O)Nc3cc(C4CC4)[nH]n3)cn2)CC1 (centres unmarked) [Compound 13]
172.41

Give Ratio CDK7/CDK12; test system CDK12 (Homo sapiens (Human)); compound C[C@H](C(=O)Nc1cc(C2CC2)[nH]n1)c1ccc(C2=CCN(C(=O)/C=C/CN(C)C)CC2)cc1 [Compound 15]
2.64

Give Ratio CDK7/CDK12; test system CDK12 (Homo sapiens (Human)); compound C=CC(=O)N1CC=C(c2ccc(C(C)C(=O)Nc3cc(C4CC4)[nH]n3)cn2)CC1 (single isomer, unassigned) [Compound 5]
7.64

Give Ratio CDK7/CDK12; test system CDK12 (Homo sapiens (Human)); compound C=CC(=O)N1CC=C(c2ccc(C(C)C(=O)Nc3cc(C4CC4)[nH]n3)cc2F)CC1 (centres unmarked) [Compound 45]
12.94

Give Ratio CDK7/CDK12; test system CDK12 (Homo sapiens (Human)); compound C=CC(=O)N1CC=C(c2ccc(CC(=O)Nc3cc(C4CC4)[nH]n3)cn2)C1 [Compound 53]
779

Give Ratio CDK7/CDK12; test system CDK12 (Homo sapiens (Human)); compound C=CC(=O)N1CC=C(c2ccc(C(C)C(=O)Nc3cc(C4CC4)[nH]n3)cn2)CC1 (centres unmarked) [Compound 4]
23.75

Give Ratio CDK7/CDK12; test system CDK12 (Homo sapiens (Human)); compound CC#CC(=O)N1CC=C(c2ccc(C(C)C(=O)Nc3cc(C4CC4)[nH]n3)cn2)CC1 (centres unmarked) [Compound 51]
8.33

Give Ratio CDK7/CDK12; test system CDK12 (Homo sapiens (Human)); compound C=CC(=O)N1CCC=C(c2ccc(C(C)C(=O)Nc3cc(C4CC4)[nH]n3)cn2)C1 (centres unmarked) [Compound 35]
5.1

Give Ratio CDK7/CDK12; test system CDK12 (Homo sapiens (Human)); compound CC#CC(=O)N1CCC=C(c2ccc(C(C)C(=O)Nc3cc(C4CC4)[nH]n3)cn2)C1 (centres unmarked) [Compound 52]
9.64

Give Ratio CDK7/CDK12; test system CDK12 (Homo sapiens (Human)); compound C=CC(=O)N1CC=C(c2ccc(C(C)C(=O)Nc3cc(C4CC4)[nH]n3)cn2)CC1 (single isomer, unassigned) [Compound 6]
32.5

Give Ratio CDK7/CDK12; test system CDK12 (Homo sapiens (Human)); compound C=CC(=O)N1CCN(c2ccc(C(C)C(=O)Nc3cc(C4CC4)[nH]n3)cn2)CC1 (centres unmarked) [Compound 20]
21.11
